- EXPERIMENTAL TARGET: Histone deacetylase 8 (Homo sapiens)
- Sequence (Q9BY41 whole entry): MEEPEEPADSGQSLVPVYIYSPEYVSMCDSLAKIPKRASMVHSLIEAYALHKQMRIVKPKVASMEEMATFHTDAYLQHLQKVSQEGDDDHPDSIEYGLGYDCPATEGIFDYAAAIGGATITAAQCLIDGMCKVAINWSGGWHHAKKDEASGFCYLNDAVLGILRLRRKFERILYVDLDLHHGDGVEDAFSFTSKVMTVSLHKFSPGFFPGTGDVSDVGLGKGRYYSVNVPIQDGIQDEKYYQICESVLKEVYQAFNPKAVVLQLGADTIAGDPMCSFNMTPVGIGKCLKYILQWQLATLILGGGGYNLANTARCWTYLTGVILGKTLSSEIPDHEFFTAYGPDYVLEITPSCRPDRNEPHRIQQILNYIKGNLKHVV
- MEASUREMENT PROTOCOL: Inhibition of human recombinant HDAC8
PROPERTY LABEL: pIC50
# pIC50 is unitless: minus log10 of the molar concentration; print number only

# example entries with known answers
CCN1CCC[C@@H](n2c(-c3cccc(/C=C/C(=O)NO)c3)nc3ccccc32)C1 :: 6.92
Cn1c(-c2cccc(/C=C/C(=O)NO)c2)nc2ccccc21 :: 7.00
CCN1CCC[C@H](n2c(-c3cccc(/C=C/C(=O)NO)c3)nc3ccccc32)C1 :: 6.80

## Task Requested read-out pIC50, target or system Histone deacetylase 8 (Homo sapiens), entry Cc1nc(Cc2ccccc2)n(CCc2ccccc2)c1-c1cccc(/C=C/C(=O)NO)c1
## Result 7.20

## Task # iterate: Cc1c(-c2ccccc2)nc(-c2cccc(/C=C/C(=O)NO)c2)n1[C@@H]1CCCN(C(C)C)C1
## Result 7.51

## Task # iterate: Cc1c(-c2ccccc2)nc(-c2cccc(/C=C/C(=O)NO)c2)n1CCc1ccccc1
## Result 7.70

## Task # iterate: Cc1c(Cc2ccccc2)nc(-c2cccc(/C=C/C(=O)NO)c2)n1[C@@H]1CCCN(C)C1
## Result 7.10

## Task # iterate: Cc1nc(-c2cccc(/C=C/C(=O)NO)c2)n([C@@H]2CCCN(C(C)C)C2)c1-c1ccccc1
## Result 7.40

## Task # iterate: O=C(/C=C/c1cccc(-c2nc3ccccc3n2CCN2CCCC2)c1)NO
## Result 7.20

## Task # iterate: CN1CCC[C@H](n2c(-c3cccc(/C=C/C(=O)NO)c3)nc3ccccc32)C1
## Result 6.80

## Task # iterate: Cc1c(-c2ccccc2)nc(-c2cccc(/C=C/C(=O)NO)c2)n1CCN1CCOCC1
## Result 7.10

## Task # iterate: CC(C)n1c(-c2cccc(/C=C/C(=O)NO)c2)nc2ccccc21
## Result 7.40

====

- Test system: HL-60
- MEASUREMENT PROTOCOL: Induction of histone H4 hyperacetylation in human HL60 cells after 4 hrs by Western blotting
- Format: functional, cell-based
- MEASUREMENT PARAMETERS: HL-60, 4 h
PROPERTY LABEL: pEC50
# pEC50 is unitless: minus log10 of the molar concentration; print number only

## Task So what does the record say about pEC50 for CN1CCC[C@@H](n2c(-c3cccc(/C=C/C(=O)NO)c3)nc3ccccc32)C1 ?
## Result 6.96

====

Listed compounds paired with reported pEC50
- Tested on: PC-3
- MEASUREMENT PROTOCOL: Cytotoxicity against human PC3 cells assessed as NADH level after 72 hrs by MTS cells
- Format: functional, cell-based
- MEASUREMENT PARAMETERS: PC-3, 72 h
# pEC50 is unitless: minus log10 of the molar concentration; print number only

## Task Requested read-out pEC50, target or system PC-3, entry COc1ccc(-n2c(-c3cccc(/C=C/C(=O)NO)c3)nc3ccccc32)cc1
## Result 5.92

## Task # iterate: CN1CCCC(n2c(-c3cccc(/C=C/C(=O)NO)c3)nc3ccccc32)C1 (racemic)
## Result 7.00

## Task # iterate: CCN1CCC[C@@H](n2c(-c3cccc(/C=C/C(=O)NO)c3)nc(C)c2-c2ccccc2)C1
## Result 7.10

## Task # iterate: CCN1CCC[C@@H](n2c(-c3cccc(/C=C/C(=O)NO)c3)nc3ccccc32)C1
## Result 7.30

## Task # iterate: CCN1CCCC(n2c(-c3cccc(/C=C/C(=O)NO)c3)nc3ccccc32)C1 (racemic)
## Result 7.00

## Task # iterate: CN1CCC[C@@H](n2c(-c3cccc(/C=C/C(=O)NO)c3)nc3ccccc32)C1
## Result 7.30

## Task # iterate: CCN1CCC[C@@H](n2c(-c3cccc(/C=C/C(=O)NO)c3)nc(Cc3ccccc3)c2C)C1
## Result 7.40

## Task # iterate: Cc1c(Cc2ccccc2)nc(-c2cccc(/C=C/C(=O)NO)c2)n1CCc1ccccc1
## Result 6.30

## Task # iterate: O=C(/C=C/c1cccc(-c2nc3ccccc3n2CCN2CCCC2)c1)NO
## Result 6.22

## Task # iterate: O=C(/C=C/c1cccc(-c2nc3ccccc3n2CCN2CCOCC2)c1)NO
## Result 5.30

## Task # iterate: O=C(/C=C/c1cccc(-c2nc3ccccc3[nH]2)c1)NO
## Result 5.00

## Task # iterate: Cc1c(-c2ccccc2)nc(-c2cccc(/C=C/C(=O)NO)c2)n1CCc1ccccc1
## Result 6.52

## Task # iterate: Cc1nc(-c2cccc(/C=C/C(=O)NO)c2)n([C@@H]2CCCN(C(C)C)C2)c1-c1ccccc1
## Result 6.70

====

Listed compounds paired with reported IC50
- EXPERIMENTAL TARGET: UniProtKB Q9UBN7
- Sequence (Q9UBN7 whole entry): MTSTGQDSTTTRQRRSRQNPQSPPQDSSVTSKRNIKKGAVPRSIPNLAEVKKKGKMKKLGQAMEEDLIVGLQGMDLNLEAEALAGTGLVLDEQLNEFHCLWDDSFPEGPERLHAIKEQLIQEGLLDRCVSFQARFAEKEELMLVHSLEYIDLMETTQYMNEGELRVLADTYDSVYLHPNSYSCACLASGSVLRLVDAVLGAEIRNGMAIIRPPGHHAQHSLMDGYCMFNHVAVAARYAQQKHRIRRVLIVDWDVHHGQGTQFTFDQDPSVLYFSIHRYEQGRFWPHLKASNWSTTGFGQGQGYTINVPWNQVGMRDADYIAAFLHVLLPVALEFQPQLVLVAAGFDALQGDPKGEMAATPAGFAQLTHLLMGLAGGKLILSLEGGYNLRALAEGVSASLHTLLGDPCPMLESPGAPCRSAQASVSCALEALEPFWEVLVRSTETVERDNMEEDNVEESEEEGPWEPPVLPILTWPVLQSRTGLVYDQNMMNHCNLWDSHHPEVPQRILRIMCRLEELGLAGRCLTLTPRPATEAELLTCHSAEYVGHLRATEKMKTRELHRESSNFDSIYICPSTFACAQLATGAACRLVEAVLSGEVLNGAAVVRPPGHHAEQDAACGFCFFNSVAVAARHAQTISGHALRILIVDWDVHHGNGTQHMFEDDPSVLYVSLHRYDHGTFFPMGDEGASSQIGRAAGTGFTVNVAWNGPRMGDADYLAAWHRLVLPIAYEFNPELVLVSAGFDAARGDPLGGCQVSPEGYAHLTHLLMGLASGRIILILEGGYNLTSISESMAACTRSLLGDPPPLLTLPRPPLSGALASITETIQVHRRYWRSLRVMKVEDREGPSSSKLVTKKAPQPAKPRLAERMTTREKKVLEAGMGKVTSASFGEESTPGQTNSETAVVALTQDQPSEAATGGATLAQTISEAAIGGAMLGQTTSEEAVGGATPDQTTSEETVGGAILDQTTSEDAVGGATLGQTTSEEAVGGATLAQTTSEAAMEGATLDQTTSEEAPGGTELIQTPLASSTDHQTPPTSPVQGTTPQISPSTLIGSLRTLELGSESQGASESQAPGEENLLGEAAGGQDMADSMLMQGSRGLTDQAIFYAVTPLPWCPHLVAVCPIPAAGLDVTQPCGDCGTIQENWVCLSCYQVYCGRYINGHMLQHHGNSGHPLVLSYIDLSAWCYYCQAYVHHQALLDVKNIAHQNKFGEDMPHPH
- MEASUREMENT PROTOCOL: Inhibition of human recombinant HDAC6
# unit: nM | format: bare number

# example entries with known answers
Cc1c(Cc2ccccc2)nc(-c2cccc(/C=C/C(=O)NO)c2)n1[C@@H]1CCCN(C)C1 :: 63
CCN1CCC[C@@H](n2c(-c3cccc(/C=C/C(=O)NO)c3)nc(C)c2C)C1 :: 120
Cc1nc(-c2cccc(/C=C/C(=O)NO)c2)n(CCc2ccccc2)c1C :: 63
Cc1c(Cc2ccccc2)nc(-c2cccc(/C=C/C(=O)NO)c2)n1CCc1ccccc1 :: 63

## Task So what does the record say about IC50 for O=C(/C=C/c1cccc(-c2nc3ccccc3n2CCc2ccccc2)c1)NO ?
## Result 31

====

- Tested on: A549
- MEASUREMENT PROTOCOL: Cytotoxicity against human A549 cells assessed as NADH level after 72 hrs by MTS cells
- Assay type: functional, cell-based
- MEASUREMENT PARAMETERS: A549, 72 h
Listed compounds paired with reported pEC50
# pEC50 is unitless: minus log10 of the molar concentration; print number only

# example entries with known answers
Cc1nc(-c2cccc(/C=C/C(=O)NO)c2)n(CCc2ccccc2)c1Cc1ccccc1 :: 6.52
O=C(/C=C/c1cccc(-c2nc3ccccc3n2C2CCCNC2)c1)NO (racemic) :: 5.60
O=C(/C=C/c1cccc(-c2nc3ccccc3n2CCc2ccccc2)c1)NO :: 5.60
CC(C)N(CCn1c(-c2cccc(/C=C/C(=O)NO)c2)nc2ccccc21)C(C)C :: 5.30
O=C(/C=C/c1cccc(-c2nc3ccccc3n2CCN2CCOCC2)c1)NO :: 4.60

## Task So what does the record say about pEC50 for CCN1CCC[C@@H](n2c(-c3cccc(/C=C/C(=O)NO)c3)nc(-c3ccccc3)c2C)C1 ?
## Result 6.52

## Task # iterate: O=C(/C=C/c1cccc(-c2nc3ccccc3n2CCCc2ccccc2)c1)NO
## Result 4.92
